assay: liver cell line viability loss – HepG2, luminescence plate reader, powder samples, set 2, cytotoxicity control, dose response (AID 651860); settings: CellTiter-Glo ATP luminescence, 48 h; series mostly up to 26 µM
Potency and affinity values are given separately. The source made the active and inactive calls.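 The calls were made as follows: active = compounds lowering HepG2 cell ATP luminescence with a fitted half-maximal concentration at most twice the top tested dose; inconclusive = flat fit with 30 to 70 percent signal loss, or poor fit; inactive = the rest.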
observed_property: outcome

molecule=COC(=O)CNc1nc(NS(=O)(=O)c2c(C)cc(C)cc2C)c2ccccc2n1 observed_property=outcome experimental_value=inactive
molecule="O=C(O)C1CCCCC1C(=O)N1CCc2ccccc2[C@H]1C(=O)NCCc1ccccc1 (some centres undefined)" observed_property=outcome experimental_value=inactive
molecule=Cc1cc(C)c(S(=O)(=O)Nc2cc(C(C(=O)OCc3ccccc3)C(=O)OCc3ccccc3)c(O)c3ccccc23)c(C)c1 observed_property=outcome experimental_value=inactive
molecule="Cc1ccc(S(=O)(=O)NNc2nc(N3CC(O)CC3C(=O)O)nc3ccccc23)cc1 (centres undefined)" observed_property=outcome experimental_value=inactive
molecule="Cc1ccc(S(=O)(=O)Nc2cc(C(C(=O)OC(C)C)C(=O)C(F)(F)F)c(O)c3ccccc23)c(C)c1 (centres undefined)" observed_property=outcome experimental_value=inactive
molecule=O=C(NC[C@@H]1c2ccccc2CCN1C(=O)[C@@H]1CCCC[C@@H]1C(=O)O)c1ccc(CCl)cc1 observed_property=outcome experimental_value=inactive
molecule="COc1ccccc1CCNC(=O)[C@@H]1c2ccccc2CCN1C(=O)C1CCCCC1C(=O)O (some centres undefined)" observed_property=outcome experimental_value=inactive
molecule=Cc1cc(C)c(S(=O)(=O)Nc2nc(N(C)C)nc3ccccc23)c(C)c1 observed_property=outcome experimental_value=inactive
molecule=O=S(=O)(Nc1nc(NCC2CCCCC2)nc2ccccc12)c1ccccc1 observed_property=outcome experimental_value=inactive
